# measurement-protocol: Hemolytic activity in human RBC assessed as hemoglobin release at pH 7.4 incubated for 1 hr
# Type: toxicity, cell-based
# test-context: erythrocyte, pH 7.4, 1 h
test-readout: MHC10

Use the examples below as a reference point.
H-HLEHLIPHVIHGLVHAIHH-NH2; > 128 µM
H-FLFHLIPHVIHGLVKAIRK-NH2; 16 µM
H-FLHHLIPHVIHGLVHAIHH-NH2; 64 µM
H-FLDHLIPHVIHGLVHAIHH-NH2; > 128 µM

Continue with the next substance.
Consider the substance "H-FLFKLIPKVIKGLVHAIHH-NH2" and give its measured MHC10.
64 µM

* * *

# measurement-protocol: Hemolytic activity in human RBC assessed as hemoglobin release at pH 7.4 incubated for 1 hr
# Format: toxicity, cell-based
# test-context: erythrocyte, pH 7.4, 1 h
test-readout: MHC10

Reference set, count: 5
H-FLFHLIPHVIHGLVHAIHH-NH2; 16 µM
H-ELEHLIPHVIHGLVHAIHH-NH2; > 128 µM
H-FLFKLIPKVIKGLVKAIRK-NH2; 16 µM
H-HLHHLIPHVIHGLVHAIHH-NH2; > 128 µM
H-HLDHLIPHVIHGLVHAIHH-NH2; > 128 µM

Field request: MHC10 | item: "H-DLDHLIPHVIHGLVHAIHH-NH2"
> 128 µM

# MHC10 lookup, item "H-FLEHLIPHVIHGLVHAIHH-NH2"
> 128 µM

* * *

# System: Pseudomonas aeruginosa
# measurement-protocol: Antibacterial activity against Pseudomonas aeruginosa ATCC 27853 assessed as inhibition of bacterial growth at pH 7.4 incubated for 24 hrs by NCCLS protocol based method
# Type: functional
test-readout: MIC

H-FLFKLIPKVIKGLVHAIHH-NH2; 8 µM
H-FLHHLIPHVIHGLVHAIHH-NH2; > 64 µM
H-FLFHLIPHVIHGLVKAIRK-NH2; 4 µM
H-FLFKLIPKVIKGLVKAIRK-NH2; 4 µM
H-FLFHLIPHVIHGLVHAIHH-NH2; 64 µM

Lab note: need MIC for "H-HLEHLIPHVIHGLVHAIHH-NH2" on Pseudomonas aeruginosa, anyone have it?
> 64 µM

Query MIC on Pseudomonas aeruginosa for "H-DLDHLIPHVIHGLVHAIHH-NH2"
> 64 µM

* * *

# measurement-protocol: Ratio of MHC for hemolytic activity against human RBC assessed as hemoglobin release at pH 6.5 to MHC for hemolytic activity against human RBC assessed as hemoglobin release at pH 7.4
# Type: toxicity, cell-based, Erythrocyte
# test-context: human red blood cells (RBC)
Known selectivity ratio of a selection of substances

Would you please look over these solved cases?
H-FLHHLIPHVIHGLVHAIHH-NH2; 1
H-FLFKLIPKVIKGLVKAIRK-NH2; 0.13
H-FLFHLIPHVIHGLVKAIRK-NH2; 0.25
H-FLFHLIPHVIHGLVHAIHH-NH2; 0.5

// moving on: another record for selectivity ratio
Reported selectivity ratio, substance "H-FLFKLIPKVIKGLVHAIHH-NH2" : ____
0.5

* * *

# measurement-protocol: Cytotoxicity against mouse RAW264.7 cells assessed as inhibition of cell growth at pH 7.4 measured after 24 hrs by MTT assay
# Type: toxicity, cell-based
test-readout: IC50 at 24 h (µM)
// return numeric value only (unit: µM, not printed)

H-FLFHLIPHVIHGLVKAIRK-NH2; 4.41
H-FLHHLIPHVIHGLVHAIHH-NH2; 70.1
H-FLFKLIPKVIKGLVKAIRK-NH2; 2.45
H-FLFHLIPHVIHGLVHAIHH-NH2; 12.3

Endpoint output: IC50 at 24 h of "H-FLFKLIPKVIKGLVHAIHH-NH2" . Value?
4.37

# input substance: "H-HLHHLIPHVIHGLVHAIHH-NH2" ; wanted: its IC50 at 24 h
66

Need IC50 at 24 h, item "H-FLDHLIPHVIHGLVHAIHH-NH2"
67.9

* * *

Listed here: items and their measured MHC10.
# measurement-protocol: Hemolytic activity against human RBC assessed as hemoglobin release at pH 6.5 incubated for 1 hrs
# Format: toxicity, cell-based
# test-context: erythrocyte, pH 6.5, 1 h
Hi! Could you send only the number? It should be in µM, unit omitted.

For orientation, consider the following solved cases.
H-FLHHLIPHVIHGLVHAIHH-NH2; 64
H-FLFHLIPHVIHGLVHAIHH-NH2; 8

I have this substance here, "H-FLFHLIPHVIHGLVKAIRK-NH2" , and I need its recorded MHC10.
4

* * *

# measurement-protocol: Hemolytic activity against human RBC assessed as hemoglobin release at pH 6.5 incubated for 1 hrs
# Type: toxicity, cell-based
# test-context: erythrocyte, pH 6.5, 1 h
test-readout: MHC10 (µM)
Give the quantity in µM, number only.

H-FLFKLIPKVIKGLVKAIRK-NH2; 2

Can you share its MHC10? I mean this substance: "H-FLFKLIPKVIKGLVHAIHH-NH2"
32

* * *

// reported MIC per item
# Tested on: Salmonella typhimurium
# measurement-protocol: Antibacterial activity against Salmonella typhimurium ATCC 14028 assessed as inhibition of bacterial growth at pH 6.5 incubated for 24 hrs by NCCLS protocol based method
# Type: functional, Salmonella enterica subsp. enterica serovar Typhimurium
# test-context: Salmonella enterica
Response body: numeric value in µM, unit text excluded.

Would you please look over these solved cases?
H-FLFKLIPKVIKGLVHAIHH-NH2; 4
H-HLHHLIPHVIHGLVHAIHH-NH2; 8
H-FLHHLIPHVIHGLVHAIHH-NH2; 4
H-HLEHLIPHVIHGLVHAIHH-NH2; 64
H-FLDHLIPHVIHGLVHAIHH-NH2; 16
H-FLEHLIPHVIHGLVHAIHH-NH2; 16

Fill in the blank: the reported MIC of "H-HLDHLIPHVIHGLVHAIHH-NH2" is ____.
64

Data request, read-out MIC, for "H-FLFHLIPHVIHGLVKAIRK-NH2"
4

Can you share its MIC? I mean this substance: "H-FLFHLIPHVIHGLVHAIHH-NH2"
16

Which MIC is reported for this substance? "H-FLFKLIPKVIKGLVKAIRK-NH2"
2

* * *

MIC by entry:
# Test system: Staphylococcus aureus
# measurement-protocol: Antibacterial activity against Staphylococcus aureus ATCC 29213 assessed as inhibition of bacterial growth at pH 6.5 incubated for 24 hrs by NCCLS protocol based method
# Format: functional
Numeric answer only, unit µM assumed.

Some solved entries appear below for comparison.
H-FLHHLIPHVIHGLVHAIHH-NH2; 16
H-FLFKLIPKVIKGLVKAIRK-NH2; 2
H-FLFKLIPKVIKGLVHAIHH-NH2; 2

Would you mind telling me what MIC value was observed for "H-FLFHLIPHVIHGLVHAIHH-NH2" ?
4

Which measured MIC value corresponds to "H-FLFHLIPHVIHGLVKAIRK-NH2" ?
1

* * *

# measurement-protocol: Hemolytic activity against human RBC assessed as hemoglobin release at pH 6.5 incubated for 1 hrs
# Assay type: toxicity, cell-based
# test-context: erythrocyte, pH 6.5, 1 h
test-readout: MHC10

H-HLEHLIPHVIHGLVHAIHH-NH2; > 128 µM
H-FLDHLIPHVIHGLVHAIHH-NH2; > 128 µM

Then there is this substance:
# lookup: MHC10 of "H-HLHHLIPHVIHGLVHAIHH-NH2"
> 128 µM
